# Target desc: human ether-à-go-go-related gene (hERG) potassium channel (human, UniProt Q12809);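 also: peak tail current of the secondary pulse compared with the same well before compound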
# Sequence (Q12809 whole entry, looked up): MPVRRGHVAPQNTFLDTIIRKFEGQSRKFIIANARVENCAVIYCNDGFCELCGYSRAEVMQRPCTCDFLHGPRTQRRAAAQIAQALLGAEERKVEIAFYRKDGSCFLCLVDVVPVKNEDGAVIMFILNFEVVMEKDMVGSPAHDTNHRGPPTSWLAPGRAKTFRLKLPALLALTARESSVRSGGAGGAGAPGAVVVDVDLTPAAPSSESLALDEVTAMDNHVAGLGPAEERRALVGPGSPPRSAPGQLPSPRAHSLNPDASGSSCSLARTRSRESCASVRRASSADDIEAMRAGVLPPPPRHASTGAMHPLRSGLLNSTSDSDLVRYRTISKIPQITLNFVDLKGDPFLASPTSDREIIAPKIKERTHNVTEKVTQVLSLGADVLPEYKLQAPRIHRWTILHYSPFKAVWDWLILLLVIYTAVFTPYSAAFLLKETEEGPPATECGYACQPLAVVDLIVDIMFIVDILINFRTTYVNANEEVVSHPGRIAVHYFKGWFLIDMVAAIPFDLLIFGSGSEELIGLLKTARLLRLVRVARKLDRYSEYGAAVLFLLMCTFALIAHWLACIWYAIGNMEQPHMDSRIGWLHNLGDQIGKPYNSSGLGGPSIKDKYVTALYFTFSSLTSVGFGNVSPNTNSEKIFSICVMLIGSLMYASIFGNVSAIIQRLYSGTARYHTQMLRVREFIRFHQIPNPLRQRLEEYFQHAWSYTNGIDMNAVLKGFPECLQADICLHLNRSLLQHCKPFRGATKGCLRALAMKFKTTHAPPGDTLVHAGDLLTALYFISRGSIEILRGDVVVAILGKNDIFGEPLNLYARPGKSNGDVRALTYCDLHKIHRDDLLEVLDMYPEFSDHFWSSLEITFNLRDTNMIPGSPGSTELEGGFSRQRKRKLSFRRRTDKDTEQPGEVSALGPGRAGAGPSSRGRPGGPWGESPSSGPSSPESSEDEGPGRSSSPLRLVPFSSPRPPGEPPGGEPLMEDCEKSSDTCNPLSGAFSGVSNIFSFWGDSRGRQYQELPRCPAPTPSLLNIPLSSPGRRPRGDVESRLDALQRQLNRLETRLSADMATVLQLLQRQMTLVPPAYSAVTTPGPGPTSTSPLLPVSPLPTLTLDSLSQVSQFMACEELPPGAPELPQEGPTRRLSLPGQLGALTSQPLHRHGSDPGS
# Method: primary screen, population patch clamp on CHO cells stably expressing hERG; higher = less effect of the substance
Out of some 310,000 compounds screened, about 14,000 (4.5%) showed an effect of 50% or more. The effect is printed as a negative number. What follows is part of a selection rich in strong results, with near analogues and random picks from the rest.
Readout: hERG current change (%, negative = inhibition) at 10uM (%)

structure=CC(=O)OCCn1c(=O)c2cc3c(=O)n(CCOC(C)=O)c(=O)c3cc2c1=O endpoint_unit=% reported_result=-4.39
structure=O=C(OCC(=O)N1CCCCC1)c1c[nH]c2ccccc12 endpoint_unit=% reported_result=-7.04
structure=Cc1ccc(NC(=O)CN2CCN(c3ccccn3)CC2)c(Cl)c1 endpoint_unit=% reported_result=-1.57
structure=N#Cc1ccc(NC(=O)CN2CCN(c3ccccn3)CC2)cc1 endpoint_unit=% reported_result=-71.9
structure=O=C(CN1CCN(c2ccccn2)CC1)Nc1ccc(Br)cc1 endpoint_unit=% reported_result=-57.7

----------
# hERG current change (%, negative = inhibition) at 10uM listing for each entry below
# Target desc: human ether-à-go-go-related gene (hERG) potassium channel (human, UniProt Q12809);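 also: peak tail current of the secondary pulse compared with the same well before compound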
# Method: primary screen, population patch clamp on CHO cells stably expressing hERG; higher = less effect of the substance
Hit rate of the full screen: of about 310,000 compounds, about 14,000 (4.5%) showed an effect of 50% or more. Effects have a minus sign here. The full list was thinned out, with strong results kept by preference.
Readout: hERG current change (%, negative = inhibition) at 10uM (%)

molecule=COc1cc2[nH]c(=O)n(Cc3ccc(C(=O)N4CCC(N5CCCCC5)CC4)cc3)c(=O)c2cc1OC reported_result=12.3
molecule="O=C(O)CC(SCC(=O)Nc1ccccc1)C(=O)O (stereo not shown)" reported_result=23
molecule="CC(NC(=O)CCn1nc(-c2ccc(Cl)cc2)ccc1=O)c1ccccc1 (stereo not shown)" reported_result=-60.6
molecule=O=C(c1cccs1)N1CCN(S(=O)(=O)c2ccccc2)CC1 reported_result=-6.98
molecule="CC(c1ccccc1)n1c(-c2ccc(Cl)cc2)n[nH]c1=S (stereo not shown)" reported_result=13.9
molecule="Cc1ccc(-c2ccc(=O)n(CCC(=O)NCCN3CCCCC3C)n2)cc1 (stereo not shown)" reported_result=-58.7
molecule="Cc1ccc(-c2ccc(=O)n(CC(=O)NCCN3CCCCC3C)n2)cc1 (stereo not shown)" reported_result=0.96
molecule=COc1ccc(OC)c(NC(=O)C(=O)NNC(=O)c2cccs2)c1 reported_result=10.9
molecule=CCOc1cc(/C=C2\C(=O)N(c3nc(-c4ccc(Br)cc4)cs3)N=C2c2ccccc2)ccc1O reported_result=4.44
molecule=COc1cc(C(=O)Nc2cc(C)cc(C)c2)c(-n2cnnn2)cc1OC reported_result=14.7
molecule=CCc1cccc(C)c1NC(=S)N(CCCN1CCN(C)CC1)Cc1cccs1 reported_result=-30.9
molecule=S=C(Nc1ccc(Cl)cc1)N(CCCN1CCOCC1)Cc1cccs1 reported_result=-32.4
molecule="CCC(Oc1ccccc1)C(=O)Nc1ccccc1N1CCCCC1 (stereo not shown)" reported_result=5.6
molecule="Cc1ccc(C2C(C(=O)c3cc4ccccc4o3)=C(O)C(=O)N2c2cc(C)on2)cc1 (stereo not shown)" reported_result=19.3
molecule="Cc1ccc(-c2ccc(=O)n(CC(=O)NCCCN3CCCCC3C)n2)cc1 (stereo not shown)" reported_result=-10.3
molecule=Cc1ccc(NC(=S)N(CCCN2CCN(C)CC2)Cc2cccs2)cc1 reported_result=-51.3
molecule=CSc1cccc(NC(=O)CN(C)S(=O)(=O)c2ccc(C)cc2)c1 reported_result=-32.8
molecule="COc1ccc(CNC(=O)C(C)c2ccc([N+](=O)[O-])cc2)cc1 (stereo not shown)" reported_result=-21.2
molecule=Cc1cc(C)c(NC(=S)N(CCCN2CCN(C)CC2)Cc2cccs2)c(C)c1 reported_result=-43.9
molecule=N#Cc1ccc(NC(=O)N2CCC(c3nc4c(nnn4Cc4cccc(Cl)c4)c(=O)[nH]3)CC2)cc1 reported_result=3.5
molecule="COc1cc(Br)c(C2C(C#N)=C(N)Oc3n[nH]c(-c4cccnc4)c32)cc1OC (stereo not shown)" reported_result=6.8
molecule=CCCCNC(=O)Cn1nc(-c2ccc(C)cc2)ccc1=O reported_result=-1.13
molecule="O=S(=O)(NCC(c1ccco1)N1CCN(c2ccccc2F)CC1)c1ccc(F)cc1 (stereo not shown)" reported_result=-11.2
molecule=CN1CCC(=O)N([C@H](CN=[N+]=[N-])Cc2ccccc2)CC1 reported_result=17.9
molecule="Cc1ccc(C2=NN(C(=O)CSc3nnnn3C)C(c3ccco3)C2)cc1 (stereo not shown)" reported_result=17.1
molecule=CCc1nnc(NC(=O)c2sc3nc4cc(C)ccc4cc3c2N)s1 reported_result=13
molecule="CC1c2[nH]c3ccccc3c2CCN1S(C)(=O)=O (stereo not shown)" reported_result=3.54
molecule=O=C1/C(=C/c2cccs2)SC(=S)N1N1CCOCC1 reported_result=5.26
molecule=COc1ccc(NC(C)=O)cc1S(=O)(=O)N(C)Cc1c(C)nn(-c2ccccc2)c1C reported_result=-13
molecule=CCN(CCn1cccn1)C(=O)CCc1nnc(CCCc2ccccc2)o1 reported_result=-37
molecule=Cc1ccc(NC(=S)N(CCN(C)C)Cc2cccs2)cc1 reported_result=-19.3
molecule=Cc1ccc(-c2ccc(=O)n(CCC(=O)NCc3ccccn3)n2)cc1 reported_result=-61
molecule="COc1ccc(CC(=O)N2CCc3cc(OC)c(OC)cc3C2C)c(OC)c1 (stereo not shown)" reported_result=-6.22
molecule="COc1ccc(C(C)(C)C)cc1NC(=O)C1C2C=CC(C2)C1C(=O)O (stereo not shown)" reported_result=12.5
molecule="Cc1cc(C(=O)CN2C(=O)NC3(CCCc4ccccc43)C2=O)c(C)n1C (stereo not shown)" reported_result=-13.5
molecule=O=C(CCn1nc(-c2ccc(Cl)cc2)ccc1=O)NCc1ccccn1 reported_result=-32
molecule=Nc1ncc([N+](=O)[O-])s1 reported_result=19.6
molecule="COc1ccccc1-c1cc(C(=O)NC(C)c2ccccc2)no1 (stereo not shown)" reported_result=9.56
molecule="CCc1ccc(N2CC(C(=O)Nc3ccc(C)c(S(=O)(=O)N4CCOCC4)c3)CC2=O)cc1 (stereo not shown)" reported_result=-34.6
molecule="CC1=CC=CC2=NC(=O)CC(C)(C(=O)N(CC(=O)NC3CCCC3)c3ccc(F)cc3)N12 (stereo not shown)" reported_result=11.1

----------
Attribute: hERG current change (%, negative = inhibition) at 10uM
# Target desc: human ether-à-go-go-related gene (hERG) potassium channel (human, UniProt Q12809);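 also: peak tail current of the secondary pulse compared with the same well before compound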
# Method: primary screen, population patch clamp on CHO cells stably expressing hERG; higher = less effect of the substance
# Experimental: Briefly, Chinese hamster ovary (CHO) cells stably expressing the hERG channel were dislodged from tissue culture flasks and dispensed into PPC plates. […] During the recording, background leak currents were estimated by a 100 ms step to -80 mV from an initial holding potential of -70 mV and subtracted from the subsequent current measurement. The campaign was conducted in two phases using slight differences in recording protocol. […]
Screen size: about 310,000 compounds; about 14,000 (4.5%) showed an effect of 50% or more. Effects have a minus sign here. The list comes from a sample in which strong results are over-represented; it also holds close analogues and randomly drawn compounds.
Readout: hERG current change (%, negative = inhibition) at 10uM (%)

molecule=Cc1ccc(S(=O)(=O)Nc2ccc(Cl)cn2)cc1C reported_result=15
molecule=CCCNC(=S)Nc1ccc(Nc2ccccc2)cc1 reported_result=-15
molecule="Cc1ccccc1NCN1C(=O)C2C3C=CC(C3)C2C1=O (stereo not shown)" reported_result=6.34
molecule=Cn1c(=O)c2c(nc(CN3CCC(C(N)=O)CC3)n2CCc2ccccc2)n(C)c1=O reported_result=4.44
molecule="CCCCN(CCCC)CCCNC(=O)C1CC(c2cc(C(F)(F)F)cc(C(F)(F)F)c2)=NO1 (stereo not shown)" reported_result=3.86
molecule="COc1ccc(OC(C)C(=O)NCC2CCCO2)cc1 (stereo not shown)" reported_result=18.5
molecule=CSc1nnc(C)c(=O)n1COC(=O)COc1ccc2ccccc2c1 reported_result=-7.33
molecule=Cc1ccc(C(=O)N(C)CC(=O)Nc2cccc(C)c2C)o1 reported_result=9.83
molecule=CN1CCN(S(=O)(=O)c2ccc(NC(=S)NC(=O)C(C)(C)C)cc2)CC1 reported_result=1.03
molecule="COc1ccc(C(CC(=O)O)NC(=O)COc2cc(C)ccc2C)cc1OC (stereo not shown)" reported_result=21.2
